Test system: IL-6 levels in human whole blood stimulated with a TLR2 agonist
Assay details: IRAK4 Whole Blood Assay (lipoteichoic acid/TLR2-stimulated IL-6)
Assay type: cell-based
Condition description: Homo sapiens, lipoteichoic acid 10 μg/mL, IL-6 readout
Description: Human whole blood containing the anti-coagulant ACD-A was plated in 384-well plate (25 μL/well) and incubated with compounds for 60 minutes at 37° C. in a 5% CO2 incubator. The blood was stimulated with a TLR2 agonist, 10 μg/mL final concentration of lipoteichoic acid (Invivogen, San Diego, Calif.) in 25 μL RPMI (Gibco) for 5 hours in a 5% CO2 incubator. […] Supernatants were harvested and analyzed for IL-6 levels by Flow Cytometry beads assay (BD Biosciences, San Jose, Calif.).
pEC50: −log10 of the molar value.
Value kind: pEC50

Record excerpt, results attached:
compound="CC(C)(O)[C@H](F)CNC(=O)c1cnc(-c2cnc3cc(Cl)cnn23)cc1Nc1cnn(CC(F)(F)F)c1 [Example 275]" system_under_test="IL-6 levels in human whole blood stimulated with a TLR2 agonist" readout_number=6.36
compound="CC(C)(O)[C@H](F)CNC(=O)c1cnc(-c2cnc3cc(Cl)cnn23)cc1NC1CCC1 [Example 180]" system_under_test="IL-6 levels in human whole blood stimulated with a TLR2 agonist" readout_number=6.03
compound="Cn1cc(Nc2cc(-c3cnc4cc(Cl)cnn34)ncc2C(=O)NC[C@@H](F)C(C)(C)O)cn1 [Example 271]" system_under_test="IL-6 levels in human whole blood stimulated with a TLR2 agonist" readout_number=6.77
compound="CC(C)OC1CC(Nc2cc(-c3cnn4cc(Cl)cnc34)ncc2C(=O)NC[C@@H](F)C(C)(C)O)CC1(F)F (single isomer, unassigned) [Example 15]" system_under_test="IL-6 levels in human whole blood stimulated with a TLR2 agonist" readout_number=6.18
compound="COCCn1cc(Nc2cc(-c3cnn4cc(C#N)cnc34)ncc2C(=O)NC[C@@H](F)C(C)(C)O)cn1 [Example 243]" system_under_test="IL-6 levels in human whole blood stimulated with a TLR2 agonist" readout_number=6.80

[1] [2H]C([2H])([2H])OC(C)(C)[C@H](F)CNC(=O)c1cnc(-c2cnn3cc(Cl)cnc23)cc1NC(C)C [Example 57]
[2] CC(C)Nc1cc(-c2cnn3cc(C#N)cnc23)ncc1C(=O)NC[C@@H](F)C(C)(C)O [Example 87]
Between the entries labelled 1 and 2 , which has a larger pEC50 value on record? Refer to your chosen entry by its label in the reply.
2
